Value source: patent US7453000B2

Please provide measured IC50 for the entries that follow.
biological target: human PTP1B (Homo sapiens); construct: without the carboxy-terminal hydrophobic region (corresponding to 1-299 aa); test: Enzymatic test system for detecting inhibition of a phosphatase (recombinant hPTP1B; phosphopeptide dephosphorylation / p-nitrophenyl phosphate cleavage); conditions: inhibition of recombinant hPTP1B (1-299 aa, expressed in Sf9 cells); Table 2 does not say which substrate procedure (A phosphopeptide or B pNPP)
Sequence (P18031 1-299): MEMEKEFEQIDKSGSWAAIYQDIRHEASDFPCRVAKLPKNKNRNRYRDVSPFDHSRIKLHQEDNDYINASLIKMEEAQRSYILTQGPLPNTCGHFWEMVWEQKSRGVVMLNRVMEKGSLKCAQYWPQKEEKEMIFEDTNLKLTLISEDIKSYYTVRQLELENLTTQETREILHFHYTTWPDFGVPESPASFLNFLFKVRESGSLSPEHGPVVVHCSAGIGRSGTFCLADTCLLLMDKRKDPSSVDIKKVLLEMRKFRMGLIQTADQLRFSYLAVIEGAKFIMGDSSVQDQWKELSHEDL
Give the value, in units of µM, as a plain number.

Entry "O=C(O)COc1ccc(-c2cnc(Nc3ccc4c(c3)CS(=O)(=O)N4)o2)cc1" ; IC50 = 290

Entry "N#Cc1cccc(-c2cnc(Nc3ccc4c(c3)CS(=O)(=O)N4)o2)c1" ; IC50 = 7.3

Entry "O=S1(=O)Cc2cc(Nc3ncc(-c4ccc(Br)s4)o3)ccc2N1" ; IC50 = 9.44

Entry "CC(C)(C)c1cc(-c2cnc(Nc3ccc4c(c3)CS(=O)(=O)N4)o2)cc(C(C)(C)C)c1O" ; IC50 = 6.12
